Origin of values: BindingDB's records for doi:10.1021/acs.jmedchem.5b01723

molecular target: Carbonic anhydrase 7 (Homo sapiens, UniProt P43166); assay: Binding affinity to human recombinant CA7 assessed as dissociation rate constant after 30 secs by surface plasmon resonance assay
Sequence (P43166 whole entry): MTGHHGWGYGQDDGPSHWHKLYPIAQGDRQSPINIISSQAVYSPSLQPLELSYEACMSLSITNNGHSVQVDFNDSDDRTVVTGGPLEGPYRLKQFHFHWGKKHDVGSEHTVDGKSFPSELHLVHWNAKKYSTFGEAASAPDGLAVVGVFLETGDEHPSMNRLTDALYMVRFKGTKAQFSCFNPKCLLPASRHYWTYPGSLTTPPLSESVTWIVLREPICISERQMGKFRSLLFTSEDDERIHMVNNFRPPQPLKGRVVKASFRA
Form field: log10(koff) (one value per entry).
Use the decimal logarithm of koff (s⁻¹).

smiles.data: NS(=O)(=O)c1c(F)c(F)c(N2CCCCC2)c(F)c1F
numeric.result: -1.15
--
smiles.data: COc1ccc(CNc2c(F)c(F)c(F)c(F)c2S(N)(=O)=O)cc1
numeric.result: -0.85
--
smiles.data: CCCS(=O)(=O)c1c(F)c(F)c(S(N)(=O)=O)c(F)c1NC1CCCCCCC1
numeric.result: -2.70
--
smiles.data: CCCSc1c(F)c(F)c(S(N)(=O)=O)c(NC2CCCCCCC2)c1F
numeric.result: -2.00

Read the next record carefully.
What reported log10(koff) corresponds to CNc1c(F)c(S(N)(=O)=O)c(F)c(F)c1S(=O)(=O)CCc1ccccc1 on Carbonic anhydrase 7 (Homo sapiens, UniProt P43166)? -1.89

* * *

The reader will find reported kon values listed item by item below.
molecular target: UniProt P00918; experiment: Binding affinity to human recombinant CA2 expressed in Escherichia coli assessed as association rate constant after 30 secs by surface plasmon resonance assay; conditions: read-out: kon (M-1-s-1)
# unit: M⁻¹ s⁻¹ | format: bare number

Record excerpt, results attached:
smiles.data: NS(=O)(=O)c1c(F)c(F)c(N2CCCCC2)c(F)c1F
tested.system: UniProt P00918
kon (M⁻¹ s⁻¹): 1.4e+06
//
smiles.data: COc1ccc(CNc2c(F)c(F)c(F)c(F)c2S(N)(=O)=O)cc1
tested.system: UniProt P00918
kon (M⁻¹ s⁻¹): 390000
//
smiles.data: CNc1c(F)c(S(N)(=O)=O)c(F)c(F)c1S(=O)(=O)CCc1ccccc1
tested.system: UniProt P00918
kon (M⁻¹ s⁻¹): 1.3e+06

GET /values?readout=kon&item= CCCS(=O)(=O)c1c(F)c(F)c(S(N)(=O)=O)c(F)c1NC1CCCCCCC1 86000
